- targetSystem: T1, HLA-DRB3 (HLA-DRB3*01:01) (human)
- T1 construct: mature; purified from homozygous EBV-transformed lymphoblastoid cells with antibody L243
- test: competition ELISA vs biotin-LOL 191-210
No end group written: not given here.
readoutType: relative affinity
Lab note: record just the number, no unit beside it.

// query Which relative affinity value is on record for PNLCSEYVKDIYAYL-NH2 [CCNB1 164-178] ?
// result 53

// query Which relative affinity value is on record for PEIGDFAFVTDNTYT-NH2 [CCNB1 264-278] ?
// result 19

// query Which relative affinity value is on record for LSYTEESLLPVMQHL-NH2 [CCNB1 369-383] ?
// result 72

// query Which relative affinity value is on record for FAFVTDNTYTKHQIR-NH2 [CCNB1 269-283] ?
// result 34

// query Which relative affinity value is on record for REVTGNMRAILIDWL-NH2 [CCNB1 195-209] ?
// result 20

// query Which relative affinity value is on record for QAFSDVILAVNDVDA-NH2 [CCNB1 144-158] ?
// result 18

// query Which relative affinity value is on record for EKLSPEPILVDTASP-NH2 [CCNB1 113-127] ?
// result 151
